The following molecules are listed with their measured Drug uptake values.
# Method: Biodistribution in eye of mouse B16F0 cells implanted C57BL/6J mouse assessed per gram of tissue at 0.4 to 5.5 MBq, iv after 1 hr by gamma counter
# Assay type: ADME, organism-based
# Assay conditions: in vivo
Output spec: scalar in %, unitless text.

Here are 3 molecules together with their reported answers.
CCN(CC)CCNC(=O)c1ccc([18F])nc1; 18.8
CCN(CC)CCNC(=O)c1ccnc([18F])c1; 23.7
CCN(CC)CCNC(=O)c1cccnc1[18F]; 38

Now consider the entry below.
What value of Drug uptake has been reported for the following molecule? CCCCN(C)CCCCNC(=O)c1ccc([18F])nc1
12.7
